- Test system: human dermal fibroblasts
- protocol_description: in vitro
- Type: cell-based
- study_conditions: read-out: IC50 16 h (cytotoxicity); 16 h incubation, MTT; 960 min
metric: CC50 (µM)

query_smiles	metric	value_units	recorded_measurement
CCOC(=O)C[C@H](C[N+](C)(C)C)OC(=O)O[C@H]1CC[C@H]2[C@@H]3CCC4=CC(=O)CC[C@]4(C)[C@H]3CC[C@]12C	CC50	µM	560

----------
// Flux, active electrotransport (ET) lookup, one value per entry
- Assay type: in vitro ADME, mouse
- study_conditions: murine skin, active cells (ETm), 10 mM donor, 100 uA/cm^2, 6 h, 32° C.
- Procedure: In vitro electrotransport of testosterone/chemical modifier complexes across hairless mouse skin was evaluated as described in Example 28. The experiments were conducted using modified Valia-Chien cells having 1.0 ml donor and 2.5 ml receptor cells. […] A standard plot of peak area and concentration for each compound was constructed using HPLC. The peak areas of the samples were determined and the concentrations calculated using the standard data. […]
Counter-ions that a name gives are not always drawn.

molecule	Flux, active electrotransport (ET)
C[C@]12CC[C@H]3[C@@H](CCC4=CC(=O)CC[C@@]43C)[C@@H]1CC[C@@H]2OC(=O)CCC(=O)NCCS(=O)(=O)O [Code 4.2]	2.8 ± 3.7 nmol/cm^2 /hr
CCOC(=O)C[C@H](C[N+](C)(C)C)OC(=O)O[C@H]1CC[C@H]2[C@@H]3CCC4=CC(=O)CC[C@]4(C)[C@H]3CC[C@]12C [Code 1.7]	3.6 ± 1.3 nmol/cm^2 /hr
C[C@]12CC[C@H]3[C@@H](CCC4=CC(=O)CC[C@@]43C)[C@@H]1CC[C@@H]2OC(=O)C[N+](C)(C)C [Code 2.2]	7.9 ± 4.1 nmol/cm^2 /hr
CN(C)CCCC(=O)O[C@H]1CC[C@H]2[C@@H]3CCC4=CC(=O)CC[C@]4(C)[C@H]3CC[C@]12C [Code 3.1, hydrochloride salt]	0.7 ± 0.2 nmol/cm^2 /hr
CCCCCCCCCCCCCCCC(=O)O[C@H](CC(=O)O[C@H]1CC[C@H]2[C@@H]3CCC4=CC(=O)CC[C@]4(C)[C@H]3CC[C@]12C)C[N+](C)(C)C [Code 1.1]	0 nmol/cm^2 /hr
C[n+]1cccc(C(=O)O[C@H]2CC[C@H]3[C@@H]4CCC5=CC(=O)CC[C@]5(C)[C@H]4CC[C@]23C)c1 [Code 2.8]	3.1 ± 1.2 nmol/cm^2 /hr
C[C@]12CC[C@H]3[C@@H](CCC4=CC(=O)CC[C@@]43C)[C@@H]1CC[C@@H]2OC(=O)CCCC[N+](C)(C)C [Code 2.4]	2.7 ± 1.1 nmol/cm^2 /hr
CC(=O)O[C@@H]1C[C@@H](C(=O)O[C@H]2CC[C@H]3[C@@H]4CCC5=CC(=O)CC[C@]5(C)[C@H]4CC[C@]23C)[N+](C)(C)C1 [Code 2.6]	0 nmol/cm^2 /hr
C[C@]12CC[C@H]3[C@@H](CC=C4C=C(OC(=O)CC[N+](C)(C)C)CC[C@@]43C)[C@@H]1CC[C@@H]2OC(=O)OCC[N+](C)(C)C [Code 4.4]	0.2 ± 0.0 nmol/cm^2 /hr
C[C@]12CC[C@H]3[C@@H](CCC4=CC(=O)CC[C@@]43C)[C@@H]1CC[C@@H]2OC(=O)C=CC[N+](C)(C)C [Code 3.8]	9.4 ± 1.2 nmol/cm^2 /hr
C[C@]12CC[C@H]3[C@@H](CCC4=CC(=O)CC[C@@]43C)[C@@H]1CC[C@@H]2OC(=O)CCC[N+](C)(C)C [Code 2.3]	2.0 ± 0.8 nmol/cm^2 /hr
COC(=O)[C@H](COC(=O)O[C@H]1CC[C@H]2[C@@H]3CCC4=CC(=O)CC[C@]4(C)[C@H]3CC[C@]12C)N(C)C [Code 3.6, hydrochloride salt]	6.8 ± 0.3 nmol/cm^2 /hr
C[C@]12CC[C@H]3[C@@H](CCC4=CC(=O)CC[C@@]43C)[C@@H]1CC[C@@H]2OC(=O)OCOC(=O)CCCCC[N+](C)(C)C [Code 3.2]	4.8 ± 0.6 nmol/cm^2 /hr
